All figures here come from PubChem BioAssay (EPA / NIEHS).

- tested-system: human Neurokinin, NK2 Receptor, TACR2 (gene 6865)
- protocol-summary: NVS_GPCR_hNK2: NovaScreen (NVS) G Protein-Coupled Receptor Assay for human Neurokinin, NK2 Receptor (AID 2283278);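 note: actives reduce bound radioligand signal relative to DMSO baseline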
Results filed as inconclusive are left out. Activity calls are given as the source filed them. Rule for the calls: active = hit-call score of the fitted dose curve at least 0.9, where 1 is the maximum; inconclusive = response in the unintended direction; inactive = score below 0.9.
Outcome field: choose from active, inactive

molecule | tested-system | class-name
CCCN(CCOc1c(Cl)cc(Cl)cc1Cl)C(=O)n1ccnc1 | human Neurokinin, NK2 Receptor, TACR2 (gene 6865) | inactive

Query: recorded result category for `O=S(=O)(O)C(F)(F)C(F)(F)C(F)(F)C(F)(F)C(F)(F)C(F)(F)C(F)(F)C(F)(F)F` in this test
inactive

Recorded test outcome, item `O=C(O)C(F)(F)C(F)(F)C(F)(F)C(F)(F)C(F)(F)C(F)(F)C(F)(F)F`
inactive

Check the results log: what was the call for `Oc1ccc(Cl)cc1Cc1ccccc1` ?
active

Each molecule tested received a call. Report the one for CC[C@H](C)[C@H]1O[C@]2(C=C[C@@H]1C)C[C@@H]1C[C@@H](C/C=C(\C)[C@@H](O[C@H]3C[C@H](OC)[C@@H](O[C@H]4C[C@H](OC)[C@@H](O)[C@H](C)O4)[C@H](C)O3)[C@@H](C)/C=C/C=C3\CO[C@@H]4[C@H](O)C(C)=C[C@@H](C(=O)O1)[C@]34O)O2 (tested in a mixture with another compound) .
active

====

- Read-out: Intercellular Adhesion Molecule 1 (ICAM1), ICAM1 (gene 3383)
- protocol-summary: BSK_KF3CT_ICAM1: BioMAP Diversity Plus: KF3CT Assay for Intercellular Adhesion Molecule 1 (ICAM1) Biomarker Activity (AID 2283067)
- test-parameters: primary human keratinocytes with fibroblasts; actives raise or lower the signal
Activity calls are given as the source filed them. The calls were made as follows: active = hit-call score of the fitted dose curve at least 0.9, where 1 is the maximum; inactive = score below 0.9.
// classify into 1.0 (active), 0.0 (inactive)

molecule | class-name
Clc1ccccc1-c1nnc(-c2ccccc2Cl)nn1 | 0.0
O=C(O)C(F)(F)C(F)(F)C(F)(F)C(F)(F)C(F)(F)C(F)(F)C(F)(F)F | 0.0

What did this assay record as the result for `CNC(=O)/C=C(\C)OP(=O)(OC)OC` ?
0.0

Record request — test call for `N#Cc1c(Cl)c(Cl)c(Cl)c(C#N)c1Cl`
1.0

Hello, I am checking results. What call was entered for O=C(NC(=O)c1c(F)cccc1F)Nc1ccc(OC(F)(F)C(F)OC(F)(F)F)c(Cl)c1 (configuration not stated) ?
0.0

For `O=C1c2ccccc2C(=O)N1SC(Cl)(Cl)Cl` , which call appears in the assay record?
0.0

Which outcome did this test record for the molecule `COc1nn(CSP(=S)(OC)OC)c(=O)s1` ?
0.0

Hi team, can someone confirm the assay call for `CCCN(CCC)c1c([N+](=O)[O-])cc(C(F)(F)F)cc1[N+](=O)[O-]` ?
0.0

# lookup: test call for `CNC(=O)CSP(=S)(OC)OC`
0.0

What was the test verdict on `[2H]C1([2H])[n+]2ccccc2-c2cccc[n+]2C1([2H])[2H]` ?
0.0

In this assay, the call recorded for `CN1CSC(=S)N(C)C1` was what?
0.0

Please share the test call associated with `CCOCN(C(=O)CCl)c1c(C)cccc1CC` .
0.0

====

- Read-out: DNA damage-inducible transcript 3 (DDIT3), DDIT3 (gene 1649)
- protocol-summary: LTEA_HepaRG_DDIT3: Life Technologies and Expression Analysis (LTEA) Assay for DNA damage-inducible transcript 3 (DDIT3) using HepaRG (AID 2283488)
- test-parameters: mRNA level, 48 h; actives raise or lower the signal
Calls of active or inactive are those of the source. The calls were made as follows: active = hit-call score of the fitted dose curve at least 0.9, where 1 is the maximum; inactive = score below 0.9.
Respond using exactly one of the listed classes: active, inactive

These solved cases illustrate the format of a correct answer.
compound | class-name
O=C(O)C(F)(F)C(F)(F)C(F)(F)C(F)(F)C(F)(F)C(F)(F)C(F)(F)F | inactive
O=C(Nc1ccccc1)Nc1cnns1 | active
O=C(O)CCCOc1ccc(Cl)cc1Cl | inactive
CC(C)(C)C(O)/C(=C\c1ccc(Cl)cc1Cl)n1cncn1 (stereo not given) | active
CC(C)OC(=O)Nc1cccc(Cl)c1 | inactive
ClC1C(Cl)C(Cl)C(Cl)C(Cl)C1Cl (stereo not given) | inactive

How did this test come out for `COc1nn(CSP(=S)(OC)OC)c(=O)s1` ?
inactive

Field: outcome | Entry: `CN1CSC(=S)N(C)C1`
inactive

What did this assay record as the result for CC(C)(C)C(O)C(Oc1ccc(Cl)cc1)n1cncn1 (stereo not given) ?
inactive

What is the recorded call for this compound in the test? `C[C@H]1[C@H](c2ccc(Cl)cc2)SC(=O)N1C(=O)NC1CCCCC1`
active

Query: recorded result category for CCC(C)Nc1c([N+](=O)[O-])cc(C(C)(C)C)cc1[N+](=O)[O-] (stereo not given) in this test
inactive

Write down the call the test reported for this compound. Item: `O=S(=O)(O)C(F)(F)C(F)(F)C(F)(F)C(F)(F)C(F)(F)C(F)(F)C(F)(F)C(F)(F)F`
active

Entry `CNC(=O)/C=C(\C)OP(=O)(OC)OC` : call = ?
inactive

For this compound, state the assay outcome: `Oc1ccc(Cl)cc1Cc1ccccc1`
inactive

Hi, do you know how `COP(=S)(OC)Oc1ccc([N+](=O)[O-])cc1` came out in this test?
inactive
